# ASSAY SYSTEM: T1, macaque AGR2 (macaque (rhesus monkey), UniProt O95994 21-175 (human entry), limits assumed)
# T1 construct: Whole entry as named; also called rhesus monkey AGR2
# T1 chain: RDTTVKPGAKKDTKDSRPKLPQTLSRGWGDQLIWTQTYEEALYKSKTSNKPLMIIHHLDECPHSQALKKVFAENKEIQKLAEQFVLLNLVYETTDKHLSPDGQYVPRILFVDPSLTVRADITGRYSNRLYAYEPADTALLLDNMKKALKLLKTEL
# ASSAY NAME: ELISA, antigen coated at 1 µg/mL, antibody titrated
pEC50: −log10 of the molar value.
ATTRIBUTE MEASURED: pEC50

>  <BINDER>
TH-115 IgG1-LALA humanized monoclonal antibody (antibody, V domains shown) VH: QVQLLESGGGLVKPGGSLRLSCATSGYVFSRSWMNWIRQAPGQGLEWIGWIYPGDGDTNYNGKVKDRFTLSADKAKNSVYLQMNSLRAEDTAVYFCARGGYDGSPWLSYWGQGTLVTVSS VL: EIVLTQSPDFQSVTPKEKVTITCKASQDINSYLSWFQQKPDQSPKTLIYRANRLVDGVPSRFSGSGSGQDFTLTINSLEAEDAATYYCLQYDEFPFTFGGGTKVEIKR

>  <MEASURED RESULT>
9.21

$$$$
>  <BINDER>
TH-109 IgG1-LALA humanized monoclonal antibody (antibody, V domains shown) VH: QVQLVQSGSELKKPGASVKVSCKTSGYVFSRSWMNWVRQAPGQGLEWIGWIYPGDGDTNYNGKFKDRFVLSADKSVSTVYLQISSLKAEDTAVYFCARGGYDGSPWLSYWGQGTLVTVSS VL: EIVLTQSPATLSLSPGERATLSCKASQDINSYLSWFQQKPGQAPRTLIYRANRLVDGIPARFSGSGSGQDFTLTISSLEPEDFAVYYCLQYDEFPFTFGGGTKVEIKR

>  <MEASURED RESULT>
8.67

$$$$
>  <BINDER>
TH-101 IgG1-LALA humanized monoclonal antibody (antibody, V domains shown) VH: QVQLVQSGAEVKKPGASVKVSCKTSGYVFSRSWMNWVRQAPGQGLEWIGWIYPGDGDTNYNGKFKDRVTLTADKSTSTVYMELSSLRSEDTAVYFCARGGYDGSPWLSYWGQGTLVTVSS VL: DIQMTQSPSSLSASVGDRVTITCKASQDINSYLSWFQQKPGKAPKTLIYRANRLVDGVPSRFSGSGSGQDFTLTISSLQPEDIATYYCLQYDEFPFTFGGGTKVEIKR

>  <MEASURED RESULT>
9.32

$$$$
>  <BINDER>
TH-104 IgG1-LALA humanized monoclonal antibody (antibody, V domains shown) VH: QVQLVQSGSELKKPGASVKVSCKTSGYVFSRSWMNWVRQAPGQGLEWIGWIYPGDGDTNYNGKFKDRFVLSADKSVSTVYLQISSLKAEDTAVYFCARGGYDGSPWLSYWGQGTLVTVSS VL: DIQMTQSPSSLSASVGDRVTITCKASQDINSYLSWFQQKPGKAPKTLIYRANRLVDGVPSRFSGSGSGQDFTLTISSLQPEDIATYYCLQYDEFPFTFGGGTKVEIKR

>  <MEASURED RESULT>
9.36

$$$$

Origin of measurements: patent US20260193331A1
